Parameter: IC50. Scope: all listed entries.
test system: A549; experiment: Cytotoxicity against human A549 cells by MTT assay; assay type: functional, cell-based
Respond with the figure and its unit, in that order.

Worked examples follow.
Compound	Assayed target	Value observed
C=C1CC[C@@H]2[C@]3(C)CO[C@@H](CC)O[C@@H]3CC[C@@]2(C)[C@@H]1C/C=C1/C(=O)OC[C@H]1O	A549	8.12 µg/mL
C[C@@H]1OC[C@@]2(C)[C@H]3CC[C@@]4(CO4)[C@@H](/C=C/C4=CCOC4=O)[C@]3(C)CC[C@H]2O1	A549	18.2 µg/mL

**Q:** Reported IC50, compound C=C1CC[C@@H]2[C@]3(C)CO[C@@H](c4ccccc4)O[C@@H]3CC[C@@]2(C)[C@@H]1C/C=C1/C(=O)OC[C@H]1O : ____
**A:** 4.07 µg/mL

**Q:** Reported IC50, compound C=C1CC[C@@H]2[C@](C)(CO)[C@H](O)CC[C@@]2(C)[C@@H]1C/C=C1/C(=O)OC[C@H]1O [ANDROGRAPHOLIDE] : ____
**A:** 9.71 µg/mL
